# target-of-assay: PI3Kα (Homo sapiens)
# method: pAKT S473 ELISA in A549 cells (PI3Kα activation)
# Type: cell-based
# Set-up: endogenous in cells; host or cells: A549
# experimental-context: A549 cells, 15 min treatment, pAKT S473 ELISA, normalised to Emax of 1 μM insulin; read-out: Av EC50
measurement-kind: pEC50
The quantity pEC50 is defined as the negative base-10 logarithm of the molar concentration.

1) COc1cc(N2CCN(C)CC2)ccc1Nc1cc(Nc2cccc(NS(C)(=O)=O)c2)ccn1	5.60
2) CC(=O)N1CCc2cccc(Nc3ccnc(Nc4ccc(N5CCN(C)CC5)cc4OC(C)C)c3)c21	5.84
3) CC(=O)N1CCc2cccc(Nc3ccnc(Nc4ccc5ncccc5c4)c3)c21	6.36
4) COc1ccc(Nc2ccnc(Nc3ccc(N4CCN(C)CC4)cc3OC)c2)cc1NC(C)=O	5.89
5) COc1cc(N2CCN(C)CC2)ccc1Nc1cc(Nc2cc(C)cc3c2N(C(C)=O)CC3)ccn1	6.00
6) CNC(=O)c1ccc(Nc2cc(Nc3cccc4c3N(C(C)=O)CC4)ccn2)cc1	5.86
7) COCCOc1cc(N2CCN(C)CC2)ccc1Nc1cc(Nc2cccc3c2N(C(C)=O)CC3)ccn1	5.28
8) CCN1CCN(c2ccc(Nc3cc(Nc4cccc(-n5ccnc5)c4)ccn3)cc2)CC1	5.27

Now for the compound whose pEC50 we want.
[ask] Report pEC50 for CC(=O)N1CCc2cccc(Nc3ccnc(Nc4ccc(N5CCN(C)CC5)cc4C)c3)c21 please.
[reply] 4.83

----------
# target-of-assay: PI3Kα (Homo sapiens, UniProt P42336)
# Sequence (P42336 whole entry): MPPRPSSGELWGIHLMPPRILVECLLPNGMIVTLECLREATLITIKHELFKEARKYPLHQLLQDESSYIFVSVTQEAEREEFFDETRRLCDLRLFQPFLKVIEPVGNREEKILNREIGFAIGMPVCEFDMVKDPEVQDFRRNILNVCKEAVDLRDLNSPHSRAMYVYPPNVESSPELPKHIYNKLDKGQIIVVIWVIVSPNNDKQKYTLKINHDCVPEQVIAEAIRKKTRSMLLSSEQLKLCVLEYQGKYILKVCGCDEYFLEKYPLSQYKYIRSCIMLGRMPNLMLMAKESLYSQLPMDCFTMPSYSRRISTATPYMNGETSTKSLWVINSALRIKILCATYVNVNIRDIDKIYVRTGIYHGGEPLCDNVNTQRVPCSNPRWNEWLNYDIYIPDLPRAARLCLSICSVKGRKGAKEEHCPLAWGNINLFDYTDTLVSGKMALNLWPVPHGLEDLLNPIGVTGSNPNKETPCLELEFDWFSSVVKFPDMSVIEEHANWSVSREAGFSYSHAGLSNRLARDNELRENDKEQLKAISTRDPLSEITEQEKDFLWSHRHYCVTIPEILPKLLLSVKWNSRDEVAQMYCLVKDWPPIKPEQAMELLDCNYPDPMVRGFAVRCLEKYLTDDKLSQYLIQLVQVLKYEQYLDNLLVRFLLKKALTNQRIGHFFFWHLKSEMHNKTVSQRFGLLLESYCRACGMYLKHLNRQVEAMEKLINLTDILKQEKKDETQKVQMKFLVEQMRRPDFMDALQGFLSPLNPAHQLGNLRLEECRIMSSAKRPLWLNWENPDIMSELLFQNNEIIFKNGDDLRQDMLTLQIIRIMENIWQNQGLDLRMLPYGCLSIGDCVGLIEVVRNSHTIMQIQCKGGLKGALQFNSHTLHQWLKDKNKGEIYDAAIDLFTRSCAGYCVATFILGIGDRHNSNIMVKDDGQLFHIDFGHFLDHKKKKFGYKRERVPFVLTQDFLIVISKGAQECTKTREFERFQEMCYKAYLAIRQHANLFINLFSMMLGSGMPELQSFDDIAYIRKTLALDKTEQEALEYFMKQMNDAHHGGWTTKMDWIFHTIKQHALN
# Sequence (P27986 whole entry partner): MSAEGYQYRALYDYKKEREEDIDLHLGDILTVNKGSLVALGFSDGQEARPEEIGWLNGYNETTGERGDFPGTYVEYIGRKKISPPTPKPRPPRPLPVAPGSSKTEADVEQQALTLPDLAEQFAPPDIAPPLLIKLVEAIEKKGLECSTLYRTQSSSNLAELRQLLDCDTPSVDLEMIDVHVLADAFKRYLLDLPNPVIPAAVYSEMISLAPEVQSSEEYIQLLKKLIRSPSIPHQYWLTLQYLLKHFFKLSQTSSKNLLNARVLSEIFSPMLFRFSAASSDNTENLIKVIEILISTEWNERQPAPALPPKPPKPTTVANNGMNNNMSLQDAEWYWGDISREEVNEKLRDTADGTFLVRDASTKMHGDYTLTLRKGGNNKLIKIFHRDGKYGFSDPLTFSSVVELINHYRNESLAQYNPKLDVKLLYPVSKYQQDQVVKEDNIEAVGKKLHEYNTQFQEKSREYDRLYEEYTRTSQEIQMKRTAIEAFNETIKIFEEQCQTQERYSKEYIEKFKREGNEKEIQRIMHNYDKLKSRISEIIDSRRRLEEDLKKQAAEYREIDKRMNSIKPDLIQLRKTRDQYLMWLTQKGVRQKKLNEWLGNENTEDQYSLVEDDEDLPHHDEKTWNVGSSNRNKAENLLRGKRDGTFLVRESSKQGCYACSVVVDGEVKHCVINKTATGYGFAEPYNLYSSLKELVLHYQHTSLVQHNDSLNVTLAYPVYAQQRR
# method: pAKT S473 ELISA in A549 cells (PI3Kα activation)
# Format: cell-based
# Design: endogenous in cells; host or cells: A549
# experimental-context: A549 cells, 15 min treatment, pAKT S473 ELISA, normalised to Emax of 1 μM insulin; read-out: Av EC50
measurement-kind: EC50

Worked cases, EC50 given:
1) CC(=O)N1CCc2cccc(Nc3ccnc(Nc4cccc(S(C)(=O)=O)c4)c3)c21	> 50 µM
2) COc1cc(N2CCN(C)CC2)ccc1Nc1cc(Nc2cccc3[nH]ccc23)ccn1	> 50 µM
3) COc1cc(Nc2cc(Nc3ccn(C)n3)ccn2)cc(OC)c1OC	≥ 50 µM
4) COc1cc(N2CCN(C)CC2)ccc1Nc1cc(Nc2ncccc2C#N)ccn1	> 50 µM
5) CNC(=O)c1ccc(Nc2cc(Nc3cc(C(C)C)nn3C)ccn2)cc1	> 50 µM

Now for the molecule whose EC50 we want.
[ask] Report EC50 for CC(=O)N1CCc2cccc(Nc3ccnc(Nc4cccc(NS(C)(=O)=O)c4)c3)c21 please.
[reply] > 50 µM

----------
Reported pEC50 values are given for each entry in this list.
# target-of-assay: PI3Kα (Homo sapiens, UniProt P42336)
# method: pAKT S473 ELISA in A549 cells (PI3Kα activation)
# Format: cell-based
# Set-up: endogenous in cells; host or cells: A549
# experimental-context: A549 cells, 15 min treatment, pAKT S473 ELISA, normalised to Emax of 1 μM insulin; read-out: Av EC50
pEC50: −log10 of the molar value.

Worked cases, pEC50 given:
1. COc1cc(N2CCN(Cc3ccc(C)cc3)CC2)ccc1Nc1cc(Nc2cccc3c2N(C(C)=O)CC3)ccn1 [26 (1993)]	< 4.30
2. CC(=O)N1CCc2cc(Nc3cc(Nc4cccc(S(C)(=O)=O)c4)ccn3)ccc21 [88 (2115)]	< 4.30

[ask] Report pEC50 for CC(=O)N1CCc2cc(Nc3cc(Nc4cc(C(C)C)nn4C)ccn3)ccc21 [85 (2110)] please.
[reply] < 4.57

[ask] Ok, now CNC(=O)c1ccccc1Nc1ccnc(Nc2ccc(N3CCN(C)CC3)cc2OC)c1 [8 (1934)]
[reply] < 4.30

[ask] Ok, now COc1cc(N2CCN(C)CC2)ccc1Nc1cc(Nc2ccc3ncccc3c2)ccn1 [57 (2047)]
[reply] < 4.30

[ask] Ok, now CC(=O)N1CCc2cccc(Nc3ccnc(Nc4ccc(C(=O)N5CCOCC5)cc4)c3)c21 [92 (2348)]
[reply] < 4.98

[ask] Ok, now CC(=O)N1CCc2cccc(Nc3ccnc(Nc4ccnc5ccccc45)c3)c21 [98 (2355)]
[reply] < 4.30

[ask] Ok, now COc1cc(N2CCN(C)CC2)ccc1Nc1cc(Nc2ccncc2)ccn1 [55 (2045)]
[reply] < 5.21

[ask] Ok, now CC(=O)N1CCc2cccc(Nc3ccnc(Nc4cc5ccccc5cn4)c3)c21 [44 (2021)]
[reply] < 4.30

[ask] Ok, now C#Cc1cccc(Nc2cc(Nc3cccc4c3N(C(C)=O)CC4)ccn2)c1 [69 (2069)]
[reply] < 4.30

[ask] Ok, now CNC(=O)c1ccc(Nc2cc(Nc3cc(C(C)(C)C)nn3C)ccn2)cc1 [89 (2116)]
[reply] < 4.30

[ask] Ok, now CNC(=O)c1cccc(Nc2ccnc(Nc3ccc4c(c3)CCN4C(C)=O)c2)c1 [86 (2111)]
[reply] < 4.54

The measured values listed here are drawn from patent US20250263404A1.
